// reported TGI for each item listed
# System: SF-295 CNS
# experiment description: NCI tumour cell line growth inhibition, 48 h

compound	TGI
Cc1ccc(/C=C2\NC(=S)N(CN3CCCCC3)C2=O)cc1	> 100 µM
NNc1ncc2c(n1)-c1ccccc1OC2	> 100 µM
CNCCN(C)Cc1cn[nH]c1-c1ccc(OC2CC(OCCC3CCOCC3)C2)cc1 (centres undefined)	> 100 µM
COCOc1c(C(OCOC)c2cnc(Sc3ccccc3)n2C)ccc(OC)c1OC (centres undefined)	> 100 µM
COc1cc(Cn2c(SCC(=O)Nc3ccc(Cl)cc3)nc3ccccc3c2=O)cc(OC)c1OC	18.4 µM
O=C1OCCC[C@H]2O[C@@H](COCc3ccccc3)C[C@@H]12	> 100 µM
CNc1ncc2cc(-c3cc(NC(=O)NCCC(C)(C)C)c(F)cc3C)c(C)nc2n1	> 100 µM
Fc1ccc(C2C3CCOc4c(ccc5ccccc45)C3=NN2c2ccccc2)cc1 (centres undefined)	> 100 µM
O=C(NC1C(=O)NNC1c1ccccc1Cl)c1ccccc1 (centres undefined)	> 100 µM
Cn1ccoc1=Nc1ccc(Cl)c(Cl)c1	> 10 µM
CC1OC(OCC2OC(Oc3ccc(C4CC(=O)c5c(O)cc(O)cc5O4)cc3O)C(O)C(O)C2O)C(O)C(O)C1O (centres undefined)	> 100 µM
CC1(C=O)CCC23COC4(CCC5C6(C)CCC(OC7OCC(OC8OC(CO)C(O)C(OC9OC(CO)C(O)C(O)C9O)C8OC8OCC(O)C(O)C8O)C(O)C7OC7OC(CO)C(O)C(O)C7O)C(C)(C)C6CCC5(C)C4(C)CC2O)C3C1 (centres undefined)	2.23 µM
O=C1CC[C@@H](NC(=O)Cc2ccccc2)C(=O)N1	> 100 µM
Nc1nnc2oc3ccc4ccccc4c3cc1-2	> 100 µM
O=C(/C=C/c1ccccc1)OCC1=C[C@@H](O)[C@@H]2C=CO[C@@H](OC3OC(CO)C(O)C(O)C3O)[C@H]12 (some centres undefined)	> 100 µM
Cc1ccc(S(=O)(=O)CC2(Br)CCc3ccccc3C2=O)cc1 (centres undefined)	> 100 µM
COc1ccc(Nc2nc3ccc(C(F)(F)F)cc3nc2C(=O)O)cc1	89.4 µM
COC(=O)[C@]12CC[C@@H](C)[C@H](C)[C@@H]1C1=CC[C@@H]3[C@@]4(C)CC(=O)[C@H](O)[C@@](C)(CO)[C@@H]4C(=O)C[C@@]3(C)[C@]1(C)CC2	23.3 µM
CS(=O)(=O)OCCN(CCOS(C)(=O)=O)c1ccc(/C=N/Nc2ncnc3nc[nH]c23)cc1	46.6 µM

====

# Tested on: K-562 leukemia
# experiment description: NCI tumour cell line growth inhibition, 48 h
value type: GI50

>>> print(df.to_string())
                                   compound  observed
0  Fc1ccc(C2C3CCOc4c(ccc5ccccc45)C3=NN2c2ccccc2)cc1 (centres undefined)     49 µM
1  N[C@@H](CSSC[C@H](N)C(=O)N1CCn2cc(-c3ccccc3)nc2[C@@H]1CC1CCCCC1)C(=O)N1CCn2cc(-c3ccccc3)nc2[C@@H]1CC1CCCCC1   1.48 µM
2  COc1ccc2c(c1)N(CCO)C1=C(C(=O)OC1)C2c1ccc(OC)c(OC)c1 (centres undefined)   1.26 µM
3  O=C(CSc1ncc(-c2ccccc2)n1-c1ccccc1)Nc1ccc(-c2nc3ccccc3s2)cc1  > 100 µM
4  Cn1cc(C2=C(c3c(S(C)=O)n(C)c4ccccc34)C(=O)NC2=O)c2ccccc21 (centres undefined)   8.89 µM
5  Oc1cccc(-c2nc(-c3ccccc3)[nH]c2-c2ccncc2)c1   11.7 µM
6  CCOC(=O)c1cc(-c2ccccc2)[nH]c1N/N=C/c1c(Cl)cccc1Cl  0.491 µM
7  COc1ccc2c(c1)C(=O)c1c-2c(N2CCN(C(=O)CCNCCNCCO)CC2)nc2ccccc12   2.97 µM
8          COc1c2ccccc2c(O)c2c(=O)ccn(C)c12    7.5 µM

====

Quick reference for TGI among some molecules
# System: OVCAR-4 ovarian
# experiment description: NCI tumour cell line growth inhibition, 48 h
value type: TGI

                                    molecule  observed
 0  O=C1C(Br)=CC2(C=C1Br)CCNc1c(O)c3c4c(c12)=NCCC=4C=N3  0.211 µM
 1  N=C1C(c2nc3ccccc3s2)=C(O)CN1c1cc(Cl)cc(Cl)c1  > 100 µM
 2  NS(=O)(=O)c1nnc(NS(=O)(=O)c2ccc(Cl)cc2)s1  > 100 µM
 3  COC(=O)C1(O)c2ccccc2N=C2C1CCN2C (configuration not stated)  > 100 µM
 4           O=C(Nc1ccccc1)Nc1ccc(Cl)c(Cl)c1   71.5 µM
 5  c1ccc2c(c1)N=C(c1ccc3ccccc3c1)CC(c1cccc3ccccc13)S2 (configuration not stated)  > 100 µM
 6  CC[C@@]1(O)C(=O)NCc2c1cc1n(c2=O)Cc2cc3c(NC(C)=O)cccc3nc2-1  > 100 µM
 7  COc1ccc2c(c1)C(=O)c1c-2c(N2CCN(C(=O)CCNCCNCCO)CC2)nc2ccccc12   42.2 µM
 8  Fc1ccc(C2C3CCOc4c(ccc5ccccc45)C3=NN2c2ccccc2)cc1 (configuration not stated)  > 100 µM
 9  CC/C(=N/N=C(N)N)c1ccc(NC(=O)Nc2ccc(/C(CC)=N/N=C(N)N)cc2)cc1   44.8 µM
10  COc1ccc2c(c1)/C(=C\c1c(Cl)n(-c3ccccc3)c3ccccc13)C(=O)N2   41.4 µM
11  COc1ccc(Nc2nc3ccc(C(F)(F)F)cc3nc2C(=O)O)cc1  > 100 µM
12  Fc1ccc(-c2nn3c(COc4ccc(Cl)cc4Cl)nnc3s2)cc1Oc1ccccc1  > 100 µM
13  Oc1cccc(-c2nc(-c3ccccc3)[nH]c2-c2ccncc2)c1   > 25 µM
14  C[N+](C)(C)CCN[N+]1(C)CCCc2ccccc21 (configuration not stated)  > 100 µM
15  COC1=CC2CCN3Cc4cc5c(cc4C(C1O)C23)OCC5 (configuration not stated)   22.8 µM
16  Cc1[nH]n(-c2cccc(Cl)c2)c(=O)c1/C=C1\C=c2ccccc2=CC1=O  > 100 µM

====

# System: EKVX NSCLC
# experiment description: NCI tumour cell line growth inhibition, 48 h
Where a SMILES comes first, the peptide text is derived from it. [ ]: non-standard residue; d: D form. Hiv = CC(C)[C@H](O)C(=O)O
Collected TGI values appear next to each entry.
value type: TGI

>>> print(df.to_string())
                                    compound  value_type  observed
 0  CCc1ccc2c(c1)C(=O)c1c-2n(CCCN)c(=O)c2cc([N+](=O)[O-])ccc12         TGI   3.11 µM
 1  CCOC(=O)C(NC(=O)c1ccccc1)(Nc1ccc(S(=O)(=O)Nc2cc(C)nc(C)n2)cc1)C(F)(F)F (stereo unspecified)         TGI  > 100 µM
 2  Cc1[nH]n(-c2cccc(Cl)c2)c(=O)c1/C=C1\C=c2ccccc2=CC1=O         TGI  > 100 µM
 3              O=C(NNC(=O)c1ccccc1O)c1ccco1         TGI  > 100 µM
 4  CC(C)[C@@H]1OC(=O)[C@@H](C)NC(=O)[C@@H]2CCCN2C1=O (cyclo([Hiv]-Pro-[dA]))         TGI  > 100 µM
 5  COc1ccc2c(c1)N(CCO)C1=C(C(=O)OC1)C2c1ccc(OC)c(OC)c1 (stereo unspecified)         TGI  > 100 µM
 6     Cc1ccc(NC(=O)C(=O)CC(=O)c2ccccc2)cc1C         TGI  > 100 µM
 7  C[n+]1c2ccccc2c(CNC(CS)C(=O)O)c2ccccc21 (stereo unspecified)         TGI  > 100 µM
 8  NC(=O)c1cc([N+](=O)[O-])cc([N+](=O)[O-])c1         TGI  > 100 µM
 9  CS(=O)(=O)OCCN(CCOS(C)(=O)=O)c1ccc(/C=N/Nc2ncnc3nc[nH]c23)cc1         TGI   78.4 µM
10  CCCCCCCCCCCC(=O)OC(COC(N)=O)COc1ccc(Cl)cc1 (stereo unspecified)         TGI   92.1 µM
11  COc1ccc(Nc2nc3ccc(C(F)(F)F)cc3nc2C(=O)O)cc1         TGI  > 100 µM
12  O=C(c1ccccc1)N1CCC(Nc2nccs2)O1 (stereo unspecified)         TGI   > 10 µM
13  O=C1/C(=C/c2ccccc2[N+](=O)[O-])COc2ccc(O)c(O)c21         TGI   10.8 µM
14  NCCNCCNc1ccc(NCCNCCN)c2c1C(=O)c1c(O)ccc(O)c1C2=O         TGI  > 100 µM
15            CCSc1nc(-c2cccs2)nc2ccc(I)cc12         TGI  > 100 µM
16  CCOC(=O)C(NC(=O)c1cccc(Cl)c1)(N1CCN(c2cc3c(cc2F)c(=O)c(C(=O)O)cn3C2CC2)CC1)C(F)(F)F (stereo unspecified)         TGI   55.2 µM
17      Cc1cc(-c2cscn2)c(O)c([N+](=O)[O-])c1         TGI  > 100 µM
18  COC(=O)C1=C(\O)C[C@@]2(C)CC[C@@H](C(=O)OC)C2C/C=C\1C(=O)OC (stereo partly specified)         TGI  > 100 µM
19       CNN1C(=O)c2c(C)c(C)c(C#N)c(N)c2C1=O         TGI  > 100 µM
20  CCN(CCO)CCCOc1ccc2c(Nc3cc(CC(=O)Nc4cccc(F)c4)[nH]n3)ncnc2c1         TGI  > 100 µM
